tested_target: human CXCR3A (Homo sapiens (Human))
Sequence (P49682 whole entry): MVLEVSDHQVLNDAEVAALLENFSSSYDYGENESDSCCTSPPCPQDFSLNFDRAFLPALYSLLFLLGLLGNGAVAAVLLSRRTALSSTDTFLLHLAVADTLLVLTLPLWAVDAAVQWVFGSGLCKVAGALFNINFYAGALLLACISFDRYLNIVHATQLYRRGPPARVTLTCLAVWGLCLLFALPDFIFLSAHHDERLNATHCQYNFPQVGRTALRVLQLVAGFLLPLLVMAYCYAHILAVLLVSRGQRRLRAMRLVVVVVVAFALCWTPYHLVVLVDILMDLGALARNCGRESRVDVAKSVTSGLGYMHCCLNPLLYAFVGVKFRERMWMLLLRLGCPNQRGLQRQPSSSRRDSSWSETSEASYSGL
experiment_summary: FLIPR assay
condition_label: CHO-K1 cells expressing the human CXCR3A coupled to Galpha(16); CXCL10 agonist 20 nM; Fluo-4-AM fluorescence; mean values if determined several times
pIC50: −log10 of the molar value.
So basically: pIC50 at 9 or higher? That is 1. Lower than 9? That is 0.

Field: example entries. Status: answers known.
Cc1ncnn1CC(=O)N1CCN(c2sc(C(F)(F)F)nc2-c2nc3ccccc3[nH]2)C[C@H]1C [Example 212]	0
C[C@@H]1CN(c2sc(C(F)(F)F)nc2-c2nc3ccccc3n2C)CCN1C(=O)Cn1cccn1 [Example 184]	0
Cc1nc(C)n(CC(=O)N2CCN(c3sc(C(F)(F)F)nc3-c3nc4ccccc4[nH]3)C[C@@H]2C)n1 [Example 243]	0
C[C@@H]1CN(c2scnc2-c2nc3c(F)cccc3[nH]2)CCN1C(=O)Cn1ccc2cccnc21 [Example 21]	0
Cc1ccccc1-c1nc(-c2nc3ccccc3[nH]2)c(N2CCN(C(=O)Cn3cnc4cccnc43)[C@H](C)C2)s1 [Example 81]	0
Cc1cccc(-c2nc(-c3nc4ccccc4[nH]3)c(N3CCN(C(=O)Cn4cnc5cccnc54)[C@H](C)C3)s2)c1 [Example 149]	0
Cc1nc(CC(=O)N2CCN(c3scnc3-c3nc4ccccc4[nH]3)CC2)cs1 [Example 7]	0
O=C(Cn1ccc2ccc(C(F)(F)F)cc21)N1CCN(c2scnc2-c2nc3ccccc3[nH]2)CC1 [Example 54]	0
C[C@@H]1CN(c2sc(C(F)(F)F)nc2-c2nc3ccc(N4CCN(C)CC4)cc3[nH]2)CCN1C(=O)Cn1cccn1 [Example 179]	0
C[C@@H]1CN(c2sc(C(F)(F)F)nc2-c2nc3ccccc3[nH]2)CCN1C(=O)Cc1ccccc1-n1cccn1 [Example 203]	0

Ask: // inclusive: pIC50 at least 9? input: O=C(Cn1ccc2ccccc21)N1CCN(c2scnc2-c2nc3ccccc3[nH]2)CC1 [Example 4]
Reply: 0

Ask: C[C@@H]1CN(c2scnc2-c2nc3ccccc3[nH]2)CCN1C(=O)Cc1ccccc1-n1nccn1 [Example 186] , same question.
Reply: 0

Ask: C[C@@H]1CN(c2scnc2-c2nc3cc(F)c(F)cc3[nH]2)CCN1C(=O)Cn1cnc2cccnc21 [Example 91] , same question.
Reply: 1

====

tested_target: CXCR3 (Homo sapiens (Human), UniProt P49682)
Sequence (P49682 whole entry): as above
experiment_summary: Receptor internalization assay
Assay type: cell-based
condition_label: human whole blood; final CXCL10 concentration 9 nM; 30 min 37° C.; CXCR3 cell surface expression on CD3 positive cells, flow cytometer; read-out: Internalization IC50
pIC50: −log10 of the molar value.
So basically: pIC50 at 6 or higher? That is Met. Lower than 6? That is Not met.

Ask: // inclusive: pIC50 at least 6? input: Cc1cccc2ccn(CC(=O)N3CCN(c4scnc4-c4nc5ccccc5[nH]4)CC3)c12 [Example 57]
Reply: Not met

Ask: C[C@@H]1CN(c2scnc2-c2nc3ccccc3[nH]2)CCN1C(=O)Cc1cccc2cccnc12 [Example 119] , same question.
Reply: Not met

Ask: Cc1ccc(-c2nc(-c3nc4ccccc4[nH]3)c(N3CCN(C(=O)Cn4cnc5cccnc54)[C@H](C)C3)s2)cc1 [Example 150] , same question.
Reply: Not met

Ask: C[C@@H]1CN(c2scnc2-c2nc3ccccc3[nH]2)CCN1C(=O)CN1CCc2cccnc21 [Example 139] , same question.
Reply: Not met

Ask: Cc1cnn(CC(=O)N2CCN(c3sc(C(F)(F)F)nc3-c3nc4ccccc4[nH]3)C[C@H]2C)c1 [Example 191] , same question.
Reply: Met

Ask: Cc1nc(C)n(CC(=O)N2CCN(c3sc(C(F)(F)F)nc3-c3nc4c(C(F)(F)F)cccc4[nH]3)C[C@H]2C)n1 [Example 232] , same question.
Reply: Met

Ask: C[C@@H]1CN(c2scnc2-c2nc3ccccc3[nH]2)CCN1C(=O)Cc1cccc2ccccc12 [Example 118] , same question.
Reply: Not met
